Target: T1, nSR100 (Mus musculus, UniProt Q8BKA3)
T1 construct: host or cells: mouse N2A cells
T1 sequence (Q8BKA3 1-608): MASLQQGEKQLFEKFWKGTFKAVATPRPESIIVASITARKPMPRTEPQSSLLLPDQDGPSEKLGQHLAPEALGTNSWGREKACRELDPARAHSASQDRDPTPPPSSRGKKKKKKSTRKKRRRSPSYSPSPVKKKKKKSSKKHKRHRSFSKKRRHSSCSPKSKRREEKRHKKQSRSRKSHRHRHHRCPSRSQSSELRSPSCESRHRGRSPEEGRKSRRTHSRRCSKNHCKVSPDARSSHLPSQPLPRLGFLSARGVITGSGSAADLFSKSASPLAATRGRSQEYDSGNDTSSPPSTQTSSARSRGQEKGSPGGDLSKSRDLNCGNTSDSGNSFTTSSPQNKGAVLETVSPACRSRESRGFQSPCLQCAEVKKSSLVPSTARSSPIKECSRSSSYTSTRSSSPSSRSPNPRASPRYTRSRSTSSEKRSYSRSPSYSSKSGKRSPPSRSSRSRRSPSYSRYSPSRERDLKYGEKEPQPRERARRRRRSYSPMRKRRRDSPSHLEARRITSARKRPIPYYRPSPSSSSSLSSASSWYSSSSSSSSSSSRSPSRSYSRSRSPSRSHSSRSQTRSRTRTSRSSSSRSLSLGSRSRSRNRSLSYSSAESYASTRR
Experiment: AP-MS nSR100 interaction partners from mouse N2A cells (Table 5)
Assay type: binding
Details: bait Srrm4, 0.1 added to prevent division by 0
Entry flag: yes (1) if FoldChange between the prey Avg spectra of the bait and control purifications reaches 7; no (0) if it does not.

- Csnk2a1 (protein, UniProt Q60737 1-391, looked up) Casein kinase II subunit alpha: MSGPVPSRARVYTDVNTHRPREYWDYESHVVEWGNQDDYQLVRKLGRGKYSEVFEAINITNNEKVVVKILKPVKKKKIKREIKILENLRGGPNIITLADIVKDPVSRTPALVFEHVNNTDFKQLYQTLTDYDIRFYMYEILKALDYCHSMGIMHRDVKPHNVMIDHEHRKLRLIDWGLAEFYHPGQEYNVRVASRYFKGPELLVDYQMYDYSLDMWSLGCMLASMIFRKEPFFHGHDNYDQLVRIAKVLGTEDLYDYIDKYNIELDPRFNDILGRHSRKRWERFVHSENQHLVSPEALDFLDKLLRYDHQSRLTAREAMEHPYFYTVVKDQARMSSTSMAGGSTPVSSANMMSGISSVPTPSPLGPLAGSPVIAAANSLGIPVPAAAGAQQ: no (0)
- Csnk2a2 (protein, UniProt O54833 1-350, looked up) Casein kinase II subunit …: MPGPAAGSRARVYAEVNSLRSREYWDYEAHVPSWGNQDDYQLVRKLGRGKYSEVFEAINITNNERVVVKILKPVKKKKIKREVKILENLRGGTNIIKLIDTVKDPVSKTPALVFEYINNTDFKQLYQILTDFDIRFYMYELLKALDYCHSKGIMHRDVKPHNVMIDHQQKKLRLIDWGLAEFYHPAQEYNVRVASRYFKGPELLVDYQMYDYSLDMWSLGCMLASMIFRKEPFFHGQDNYDQLVRIAKVLGTDELYGYLKKYHIDLDPHFNDILGQHSRKRWENFIHSENRHLVSPEALDLLDKLLRYDHQQRLTAKEAMEHPYFYPVVKEQSQPCAENTVLSSGLTAAR: yes (1)
- Cdc37 (protein, UniProt Q61081 1-379, looked up) Hsp90 co-chaperone Cdc37: MVDYSVWDHIEVSDDEDETHPNIDTASLFRWRHQARVERMEQFQKEKEELDRGCRECKRKVAECQRKLKELEVAESDGQVELERLRAEAQQLRKEERSWEQKLEDMRKKEKNMPWNVDTLSKDGFSKSMVNTKPEKAEEDSEEAREQKHKTFVEKYEKQIKHFGMLHRWDDSQKYLSDNVHLVCEETANYLVIWCIDLEVEEKCALMEQVAHQTMVMQFILELAKSLKVDPRACFRQFFTKIKTADHQYMEGFKYELEAFKERVRGRAKLRIEKAMKEYEEEERKKRLGPGGLDPVEVYESLPEELQKCFDVKDVQMLQDAISKMDPTDAKYHMQRCIDSGLWVPNSKSGEAKEGEEAGPGDPLLEAVPKAGNEKDVSA: no (0)
- Bcas2 (protein, UniProt Q9D287 2-225, looked up) Pre-mRNA-splicing factor SPF27: AGTGLVAGEVVVDALPYFDQGYEAPGVREAAAALVEEETRRYRPTKNYLSYLTAPDYSAFETDIMRNEFERLAARQPIELLSMKRYELPAPSSGQKNDITAWQECVNNSMAQLEHQAVRIENLELMSQHGCNAWKVYNENLVHMIEHAQKELQKLRKHIQDLNWQRKNMQLTAGSKLREMESNWVSLVSKNYEIERTIVQLENEIYQIKQQHGEANKENIRQDF: yes (1)
- Pgam5 (protein, UniProt Q8BX10 1-288, looked up) Serine/threonine-protein …: MAFRQALQLAACGLAGGSAAVLFSAVAVGKPRGGGDADTRATEPPAWTGARAGRGVWDTNWDRREPLSLINLKKRNVESGEDELTSRLDHYKAKATRHIFLIRHSQYHVDGSLEKDRTLTPLGREQAELTGLRLASLGLKFNKIVHSSMTRAVETTDIISKHLPGVSRVSTDLLREGAPIEPDPPVSHWKPEAVQYYEDGARIEAAFRNYIHRADARQEEDSYEIFICHANVIRYIVCRALQFPPEGWLRLSLNNGSITHLVIRPNGRVALRTLGDTGFMPPDKITRS: yes (1)
- Rab5c (protein, UniProt P35278 1-216, looked up) Ras-related protein Rab-5C: MAGRGGAARPNGPAAGNKICQFKLVLLGESAVGKSSLVLRFVKGQFHEYQESTIGAAFLTQTVCLDDTTVKFEIWDTAGQERYHSLAPMYYRGAQAAIVVYDITNTDTFARAKNWVKELQRQASPNIVIALAGNKADLASKRAVEFQEAQAYADDNSLLFMETSAKTAMNVNEIFMAIAKKLPKNEPQNAAGAPGRTRGVDLQESNPASRSQCCSN: yes (1)
- Tpi1 (protein, UniProt P17751 2-249, looked up) Triosephosphate isomerase: APTRKFFVGGNWKMNGRKKCLGELICTLNAANVPAGTEVVCAPPTAYIDFARQKLDPKIAVAAQNCYKVTNGAFTGEISPGMIKDLGATWVVLGHSERRHVFGESDELIGQKVSHALAEGLGVIACIGEKLDEREAGITEKVVFEQTKVIADNVKDWSKVVLAYEPVWAIGTGKTATPQQAQEVHEKLRGWLKSNVNDGVAQSTRIIYGGSVTGATCKELASQPDVDGFLVGGASLKPEFVDIINAKQ: no (0)
- Fam76b (protein, UniProt Q80XP8 2-339, looked up) Protein FAM76B: AASALYACTKCTQRYPFEELSQGQQLCKECRIAHPIVKCTYCRSEFQQESKTNTICKKCAQNVKQFGTPKPCQYCNIIAAFIGTKCQRCTNSEKKYGAPQTCEQCKQQCAFDRKEEGRRKVDGKLLCWLCTLSYKRVLQKTKEQRKSLGSSHSNSSSSSLTEKDQHHSKHHHHHHHHHHRHSSGHHKVSSLSPEQEQGLWKQSHKSSAAIQNETPKKKPKLESKPSNGDSSSINQSADSGGTDNFVLISQLKEEVMSLKRLLQQRDQTILEKDKKLTELKADFQYQESNLRTKMNSMEKAHKETVEQLQAKNRELLKQVAALSKGKKFDKSGSVLTSP: yes (1)
